Every entry's value here was drawn from patent EP4269424A1.

Target: G3BP1
Assay type: binding, human
No end group written: not given here.

CHAIN SEQUENCE | STUDY TARGET | Kd / µM
LTFGDFTGSTGSTGSTGITFGDFDDW [G3BPi spacer3] | G3BP1 | 2.4
